Test system: U2OS
Test: Multiplex assay against U2OS
Format: toxicity, cell-based
Conditions: human, 24 h, 1 µM, compound concentration 1 uM, replicate 1
experimental_readout: Population Pyknosed Nuclei (%)

Q: Look at this compound and give its reported Population Pyknosed Nuclei (%). `Cc1cc(C)c(S(=O)(=O)N(Cc2ccc(-c3cccc(S(C)(=O)=O)c3)cc2)Cc2ccc(C(F)(F)F)o2)c(C)c1`
Result: 7%

Q: // next record CN(C)C(=O)C(CCN1CCC(O)(c2ccc(Cl)cc2)CC1)(c1ccccc1)c1ccccc1.Cl [LOPERAMIDE HYDROCHLORIDE]
Result: 14%

Q: And the next one, `CCn1c(=O)c(-c2ccc(-c3cncs3)cc2Cl)cc2cnc(Nc3ccc(N4CCN(C)CC4)cc3)nc21` ?
Result: 10%

Q: Same again, this time with COCC(=O)NC/C=C/c1ccc2ncnc(Nc3ccc(Oc4ccc(C)nc4)c(C)c3)c2c1 [CP-724714]
Result: 17%

Q: // next record `CCN1CCN(Cc2ccc(Nc3ncc(F)c(-c4cc(F)c5nc(C)n(C(C)C)c5c4)n3)nc2)CC1.CS(=O)(=O)O`
Result: 20%

Q: Queued: `Cl.O=C(c1ccc(Nc2nccc(-c3cc4ccccc4s3)n2)cc1)N1CCC(N2CCCC2)CC1`
Result: 8%

Q: What do you get for `Cl.O=c1c2cccn2c2ccccc2n1CCCN1CCC(c2ccc(Cl)cc2)CC1` ?
Result: 16%

Q: Another compound to check: C=C1/C(=C\C=C2/CCC[C@]3(C)[C@@H]([C@H](C)/C=C/[C@H](C)C(C)C)CC[C@@H]23)C[C@@H](O)C[C@@H]1O [DOXERCALCIFEROL]
Result: 6%

Q: Query CCCn1c(=O)c2[nH]c(-c3cnn(Cc4cccc(C(F)(F)F)c4)c3)nc2n(CC)c1=O [GS 6201] next
Result: 8%

Q: # repeat for CCn1cc(-c2ccnc3[nH]c(-c4cccc(CN(C)C)c4)cc23)c(-c2ccc(NC(=O)N(C)C)cc2)n1 [GSK-1070916]
Result: 12%

Q: Same question for COc1ccc(-c2ccc3c(N4CCOCC4)nc(N4C[C@@H](C)O[C@@H](C)C4)nc3n2)cc1CO [Ku-0063794] please.
Result: 4%

* * *

Would you kindly list Population Apoptotic (%) for each of these compounds?
Test system: HEK-293T
Assay: Multiplex assay against HEK293T
Assay type: toxicity, cell-based
Settings: human, 24 h, 1 µM, compound concentration 1 uM, replicate 1
The reply should read as a number followed by its unit.

Q: Field request: Population Apoptotic (%) | item: CCCn1c(=O)c2[nH]c(-c3cnn(Cc4cccc(C(F)(F)F)c4)c3)nc2n(CC)c1=O [GS 6201]
Result: 52%

Q: Again, but for `NC(=O)c1cccc(-c2cc(Nc3ccc(OC(F)(F)F)cc3)ncn2)c1`
Result: 22%

Q: Try this compound next: `O=C(Nc1ccc(-c2ccnc(Nc3ccc(N4CCOCC4)cc3)n2)cc1)[C@@H]1CCCN1`
Result: 51%

Q: `O=C(Nc1ccc(Cl)cc1)Nc1cccc(-c2cccc(N3CCCC3)n2)c1` ?
Result: 49%

Q: Further, for `O=C1N/C(=N/c2ccccc2F)S/C1=C\c1ccc(C(=O)O)cc1` ?
Result: 43%

* * *

Can you tell me Population Membrane Permeable-Phenotype (%) for the items I'm about to list?
Test system: HEK-293T
Test: Multiplex assay against HEK293T
Assay type: toxicity, cell-based
Settings: human, 24 h, 10 µM, compound concentration 10 uM, replicate 1
The figure you give is taken to be in %; do not add the unit.

Q: Need Population Membrane Permeable-Phenotype (%) of `CCOc1cc(C(=O)N2CCC(N3CCN(C)CC3)CC2)ccc1Nc1ncc2c(n1)N(C1CCCC1)c1ccccc1C(=O)N2C` , thanks.
Result: 0

Q: Now give it for `CCn1cc(-c2ccnc3[nH]c(-c4cccc(CN(C)C)c4)cc23)c(-c2ccc(NC(=O)N(C)C)cc2)n1` too.
Result: 9

Q: Request: `Cn1nc(C(F)(F)F)cc1-c1cnc(N2CCc3cc(S(=O)(=O)Nc4c(F)cc(Cl)cc4F)cc(N4CCCC4=O)c32)nc1`
Result: 8

Q: Follow-up item: `COc1ccc(S(=O)(=O)N(CCO)c2ccccc2CN(C)C/C=C/c2ccc(Cl)cc2)cc1.O=P(O)(O)O`
Result: 10

Q: Here is the next compound: `CNC(=O)c1ccc(Nc2nc(OC3CCCC3)c3c(-c4ccc5nc(C)oc5c4)c[nH]c3n2)c(OC)c1`
Result: 23

Q: Another compound: CN(C)C(=O)C(CCN1CCC(O)(c2ccc(Cl)cc2)CC1)(c1ccccc1)c1ccccc1.Cl [LOPERAMIDE HYDROCHLORIDE]
Result: 0

Q: Request: `CCc1cccc(CC)c1NC(=O)c1nn(C)c2c1CCc1cnc(Nc3ccc(N4CCN(C)CC4)cc3OC)nc1-2`
Result: 20

* * *

Assign Population Apoptotic (%) to each entry below.
Tested on: HEK-293T
Assay: Multiplex assay against HEK293T
Assay type: toxicity, cell-based
Conditions: human, 48 h, 10 µM, compound concentration 10 uM, replicate 2
Supply the numeric figure in %, leaving out any unit text.

Q: Given the entry `C=C1/C(=C\C=C2/CCC[C@]3(C)[C@@H]([C@H](C)/C=C/[C@H](C)C(C)C)CC[C@@H]23)C[C@@H](O)C[C@@H]1O` , report its measured Population Apoptotic (%).
Result: 22

Q: Same for `S=C(NCCCc1c[nH]cn1)NCCCN(Cc1ccc(Cl)c(Cl)c1)c1ccc(Br)cn1`
Result: 87

Q: Quick one: `CCCn1c(=O)c2[nH]c(-c3cnn(Cc4cccc(C(F)(F)F)c4)c3)nc2n(CC)c1=O`
Result: 18

Q: Another compound: `O=C(Nc1ccc(-c2ccnc(Nc3ccc(N4CCOCC4)cc3)n2)cc1)[C@@H]1CCCN1`
Result: 36

* * *

Test system: Fibroblast
Assay: Multiplex assay against human fibroblast
Assay type: toxicity, cell-based
Details: 12 h, 1 µM, compound concentration 1 uM, replicate 2
experimental_readout: Population Hoechst High Intensity Objects (%)
Use % as the unit, but write only the number.

Q: # get_value(readout='Population Hoechst High Intensity Objects (%)', item= `COc1cc(N2CCN(C)CC2)ccc1Nc1ncc2c(n1)N(C)c1ccccc1C(=O)N2C` )
Result: 4

Q: Please answer likewise for `CCCS(=O)(=O)Nc1ccc(F)c(C(=O)c2c[nH]c3ncc(Cl)cc23)c1F`
Result: 29

Q: And for `CCn1c(=O)c(-c2ccc(-c3cncs3)cc2Cl)cc2cnc(Nc3ccc(N4CCN(C)CC4)cc3)nc21` ?
Result: 7

Q: Do the same for `O=C(Nc1ccc(-n2nc(-c3cccnc3)cc2C(F)(F)F)cn1)c1ccc(-c2ccccc2)c(F)c1` please
Result: 8

Q: Also `O=C(Nc1cccnn1)N1CCC(=Cc2cccc(Oc3ccc(C(F)(F)F)cn3)c2)CC1` ?
Result: 44

Q: Please give the result for `COc1ccc(S(=O)(=O)N(CCO)c2ccccc2CN(C)C/C=C/c2ccc(Cl)cc2)cc1.O=P(O)(O)O` too.
Result: 33

Q: Note, next up: `CCOc1cc(C(=O)N2CCC(N3CCN(C)CC3)CC2)ccc1Nc1ncc2c(n1)N(C1CCCC1)c1ccccc1C(=O)N2C`
Result: 10

Q: Next entry: `O=C(Nc1ccc(Cl)cc1)Nc1cccc(-c2cccc(N3CCCC3)n2)c1`
Result: 7

Q: How about this molecule: `Cc1ccc2nc(NCCN)c3ncc(C)n3c2c1.O=C(O)C(F)(F)F.O=C(O)C(F)(F)F`
Result: 51

* * *

System: HEK-293T
Assay: Multiplex assay against HEK293T
Assay type: toxicity, cell-based
Settings: human, 24 h, 1 µM, compound concentration 1 uM, replicate 1
Would you mind telling me the reported Population Normal (%) of each entry?
Only the number, expressed in %, is required.

Q: Reported Population Normal (%), molecule `CCCS(=O)(=O)Nc1ccc(F)c(C(=O)c2c[nH]c3ncc(Cl)cc23)c1F` : ____
Result: 92

Q: Now the molecule `CNC(=O)c1ccc(Nc2nc(OC3CCCC3)c3c(-c4ccc5nc(C)oc5c4)c[nH]c3n2)c(OC)c1`
Result: 74

Q: What do you have for `O=C1NC(=O)C(c2cnc3ccccn23)=C1c1cn2c3c(cc(F)cc13)CN(C(=O)N1CCCCC1)CC2` ?
Result: 82

Q: What do we get for `O=C(Nc1cccnn1)N1CCC(=Cc2cccc(Oc3ccc(C(F)(F)F)cn3)c2)CC1` ?
Result: 84

Q: Repeat for the following molecule: `Cc1ccc(C(=O)Nc2cccc(C(F)(F)F)c2)cc1Nc1nc(-c2cccnc2)nc2c1cnn2C`
Result: 83

Q: Subsequent entry: `CCn1c(=O)c(-c2ccc(-c3cncs3)cc2Cl)cc2cnc(Nc3ccc(N4CCN(C)CC4)cc3)nc21`
Result: 85

Q: Now the molecule `CCCS(=O)(=O)c1nc(NC2CC2)cc(-c2ccc3c(ccn3C3CC(C)(C)NC(C)(C)C3)c2)n1`
Result: 85

Q: Now this one: `O=C(Nc1ccc(-c2ccnc(Nc3ccc(N4CCOCC4)cc3)n2)cc1)[C@@H]1CCCN1`
Result: 87
